Source listed as ChEMBL document CHEMBL1201862.

# System: IGROV-1
# ASSAY TEXT: NCI tumour cell line growth inhibition, 48 h
Calls of active or inactive are those of the source. Cut-off read from the data, not from the text of the source: active = GI50 up to about 1.1 µM and inactive = higher.
Return exactly one item of class 1 (active), class 0 (inactive)

Worked examples, 2 molecules total:
• O=C1CCC(c2ccccc2)=NN1c1nc2ccccc2s1 = class 0
• O=C1OC(Cl)C(N=P(c2ccccc2)(c2ccccc2)c2ccccc2)=C1Cl (stereo unspecified) = class 0

Incoming: Give the logged outcome of this assay for the following molecule: CC(=O)Oc1cc(-c2oc3cc(OC(C)=O)c(C4OC(CO)C(O)C(O)C4O)c(OC(C)=O)c3c(=O)c2O)c(OC(C)=O)cc1O (stereo unspecified)
Outgoing: class 0

Incoming: Give the logged outcome of this assay for the following molecule: `O=[N+]([O-])c1ccc(S(=O)(=O)N=Ic2ccccc2)cc1`
Outgoing: class 0

Incoming: Give the logged outcome of this assay for the following molecule: COc1ccc2c(c1OC)C(C=C(c1ccccc1)c1ccccc1)CN(C)C2 (stereo unspecified)
Outgoing: class 0

Incoming: Give the logged outcome of this assay for the following molecule: `Cn1c(=O)c(C(c2ccccc2)c2c(O)c3ccccc3n(C)c2=O)c(O)c2ccccc21`
Outgoing: class 0

Incoming: Give the logged outcome of this assay for the following molecule: `Cc1cc(Br)cc(C)c1NC(=O)C(=O)CC(=O)c1sc(-n2nc(-c3ccccc3)cc2-c2ccccc2)nc1C`
Outgoing: class 0

Incoming: Give the logged outcome of this assay for the following molecule: CC(CS(=O)(=O)Cc1ccccc1)C(N)=O (stereo unspecified)
Outgoing: class 0

Incoming: Give the logged outcome of this assay for the following molecule: `CCOC(=N)CC(=O)Nc1ccccc1`
Outgoing: class 0

Incoming: Give the logged outcome of this assay for the following molecule: `C1CSCCCSCCSCCCSC1`
Outgoing: class 0

Incoming: Give the logged outcome of this assay for the following molecule: COc1ccc(N2C(=O)C3c4[nH]c5ccc(C)cc5c4C4CCC(C(C)(C)C)CC4C3C2=O)cc1 (stereo unspecified)
Outgoing: class 0

----------
# System: KM12
# ASSAY TEXT: NCI tumour cell line growth inhibition, 48 h
Calls of active or inactive are those of the source. Rule as the data show it: active = GI50 up to about 1.1 µM and inactive = higher.
Parameter GI50: see the listing below.

// GI50 value for `N#CCc1c(-c2ccccc2)n(S(=O)(=O)c2ccccc2)c2ccccc12` : > 100 µM (inactive)

// GI50 value for `CCOC(=O)c1cc2cc(CSc3ccccc3)ccc2oc1=O` : > 100 µM (inactive)

// GI50 value for `C/C=C/COC(=O)CO[N+](=O)[O-]` : > 100 µM (inactive)

// GI50 value for `Cc1cc2[nH]c3c(C#N)c(-c4ccccc4)c(/N=N/c4cccc(C(F)(F)F)c4)c(=O)n3c2cc1C` : 31.6 µM (inactive)

// GI50 value for `CCCCCCCC(=O)O[C@H]1[C@H]2[C@@H](CC1(C)C)C(=O)[C@]13O[C@H]1C(=O)[C@]1(CO1)[C@]23C` : 7.73 µM (inactive)

// GI50 value for Cc1ccc(/N=N/N(C)C(C)C(O)Cc2ccccc2)cc1 (stereo not drawn) : 25.2 µM (inactive)

// GI50 value for `NCCSc1nc(-c2ccccc2)c(-c2ccccc2)o1` : > 100 µM (inactive)

// GI50 value for `CCCn1c(SCC)c2ccccc2c1-c1nc(F)nc(F)n1` : > 100 µM (inactive)

// GI50 value for `Oc1cc(-c2ccccc2Cl)nc2cc3c(cc12)OCO3` : 0.0486 µM (active)

// GI50 value for `NCCCCNOCCCN` : > 100 µM (inactive)
